Where do these numbers come from? They come from PubChem BioAssay (NCI).

Field: growth. Provide a value for each of the compounds that follow.
tested on: UACC-257 melanoma; assay: NCI-60 one-dose screen, 48 h (100 = growth as untreated, 0 = no growth, -100 = all killed); conditions: 10 µM unless noted
The panel holds about 83,000 compounds, 20% with a hit somewhere; the sample as a whole holds those more often. The source made the active and inactive calls. The calls were made as follows: active = growth percent below 10; inactive = the rest.

q: Bench note: what growth did CCN(CC)CCOc1ccc(Nc2ncc3cc(-c4ccc(O)c(C#N)c4)c(=O)n(C)c3n2)cc1 show?
a: 101% (inactive)

q: Bench note: what growth did CN(C)CCOc1ccc(C(=O)C2[C@H](c3ccc(Cl)cc3)[C@@H](c3ccccc3)NC23C(=O)Nc2ccccc23)cc1 (some centres undefined) show?
a: 95.8% (inactive)

q: Bench note: what growth did COc1ccc(N2N=C(c3ccc4c(c3)OCO4)CC2c2cccc(NC(=O)CCNS(=O)(=O)c3ccc(Cl)cc3)c2)cc1 (centres undefined) show?
a: 49.2% (inactive)

q: Bench note: what growth did COc1ccc(/C=C/c2nc3ccccc3c(=O)n2CC(=O)Nc2ccc(Cl)cc2)cc1 show?
a: 92.3% (inactive)
